# EXPERIMENT: cells
# Assay type: functional, cell-based
Active and inactive are the calls of the source.
Catalogue of compounds with associated EC50
READOUT: EC50

• Cc1ccc2[nH]c(C(=O)N/N=C/c3ccccc3O)c(C)c2c1 = > 350 µM (not active)
• CC(C)Sc1nc(N)c2c3c(sc2n1)CN(C)CC3 = > 350 µM (not active)
• COC(=O)c1cc(S(=O)(=O)NCc2ccccc2OC)cn1C = > 350 µM (not active)
• Cc1cccc(-n2ncc3c(NCc4ccco4)ncnc32)c1 = 88.7 µM (active)

###

# TARGET_SYSTEM: Voltage-gated N-type calcium channel alpha-1B subunit/Amyloid beta A4 precursor protein-binding family A member 1 (Homo sapiens, UniProt Q00975+Q02410)
# Sequence (Q00975 whole entry): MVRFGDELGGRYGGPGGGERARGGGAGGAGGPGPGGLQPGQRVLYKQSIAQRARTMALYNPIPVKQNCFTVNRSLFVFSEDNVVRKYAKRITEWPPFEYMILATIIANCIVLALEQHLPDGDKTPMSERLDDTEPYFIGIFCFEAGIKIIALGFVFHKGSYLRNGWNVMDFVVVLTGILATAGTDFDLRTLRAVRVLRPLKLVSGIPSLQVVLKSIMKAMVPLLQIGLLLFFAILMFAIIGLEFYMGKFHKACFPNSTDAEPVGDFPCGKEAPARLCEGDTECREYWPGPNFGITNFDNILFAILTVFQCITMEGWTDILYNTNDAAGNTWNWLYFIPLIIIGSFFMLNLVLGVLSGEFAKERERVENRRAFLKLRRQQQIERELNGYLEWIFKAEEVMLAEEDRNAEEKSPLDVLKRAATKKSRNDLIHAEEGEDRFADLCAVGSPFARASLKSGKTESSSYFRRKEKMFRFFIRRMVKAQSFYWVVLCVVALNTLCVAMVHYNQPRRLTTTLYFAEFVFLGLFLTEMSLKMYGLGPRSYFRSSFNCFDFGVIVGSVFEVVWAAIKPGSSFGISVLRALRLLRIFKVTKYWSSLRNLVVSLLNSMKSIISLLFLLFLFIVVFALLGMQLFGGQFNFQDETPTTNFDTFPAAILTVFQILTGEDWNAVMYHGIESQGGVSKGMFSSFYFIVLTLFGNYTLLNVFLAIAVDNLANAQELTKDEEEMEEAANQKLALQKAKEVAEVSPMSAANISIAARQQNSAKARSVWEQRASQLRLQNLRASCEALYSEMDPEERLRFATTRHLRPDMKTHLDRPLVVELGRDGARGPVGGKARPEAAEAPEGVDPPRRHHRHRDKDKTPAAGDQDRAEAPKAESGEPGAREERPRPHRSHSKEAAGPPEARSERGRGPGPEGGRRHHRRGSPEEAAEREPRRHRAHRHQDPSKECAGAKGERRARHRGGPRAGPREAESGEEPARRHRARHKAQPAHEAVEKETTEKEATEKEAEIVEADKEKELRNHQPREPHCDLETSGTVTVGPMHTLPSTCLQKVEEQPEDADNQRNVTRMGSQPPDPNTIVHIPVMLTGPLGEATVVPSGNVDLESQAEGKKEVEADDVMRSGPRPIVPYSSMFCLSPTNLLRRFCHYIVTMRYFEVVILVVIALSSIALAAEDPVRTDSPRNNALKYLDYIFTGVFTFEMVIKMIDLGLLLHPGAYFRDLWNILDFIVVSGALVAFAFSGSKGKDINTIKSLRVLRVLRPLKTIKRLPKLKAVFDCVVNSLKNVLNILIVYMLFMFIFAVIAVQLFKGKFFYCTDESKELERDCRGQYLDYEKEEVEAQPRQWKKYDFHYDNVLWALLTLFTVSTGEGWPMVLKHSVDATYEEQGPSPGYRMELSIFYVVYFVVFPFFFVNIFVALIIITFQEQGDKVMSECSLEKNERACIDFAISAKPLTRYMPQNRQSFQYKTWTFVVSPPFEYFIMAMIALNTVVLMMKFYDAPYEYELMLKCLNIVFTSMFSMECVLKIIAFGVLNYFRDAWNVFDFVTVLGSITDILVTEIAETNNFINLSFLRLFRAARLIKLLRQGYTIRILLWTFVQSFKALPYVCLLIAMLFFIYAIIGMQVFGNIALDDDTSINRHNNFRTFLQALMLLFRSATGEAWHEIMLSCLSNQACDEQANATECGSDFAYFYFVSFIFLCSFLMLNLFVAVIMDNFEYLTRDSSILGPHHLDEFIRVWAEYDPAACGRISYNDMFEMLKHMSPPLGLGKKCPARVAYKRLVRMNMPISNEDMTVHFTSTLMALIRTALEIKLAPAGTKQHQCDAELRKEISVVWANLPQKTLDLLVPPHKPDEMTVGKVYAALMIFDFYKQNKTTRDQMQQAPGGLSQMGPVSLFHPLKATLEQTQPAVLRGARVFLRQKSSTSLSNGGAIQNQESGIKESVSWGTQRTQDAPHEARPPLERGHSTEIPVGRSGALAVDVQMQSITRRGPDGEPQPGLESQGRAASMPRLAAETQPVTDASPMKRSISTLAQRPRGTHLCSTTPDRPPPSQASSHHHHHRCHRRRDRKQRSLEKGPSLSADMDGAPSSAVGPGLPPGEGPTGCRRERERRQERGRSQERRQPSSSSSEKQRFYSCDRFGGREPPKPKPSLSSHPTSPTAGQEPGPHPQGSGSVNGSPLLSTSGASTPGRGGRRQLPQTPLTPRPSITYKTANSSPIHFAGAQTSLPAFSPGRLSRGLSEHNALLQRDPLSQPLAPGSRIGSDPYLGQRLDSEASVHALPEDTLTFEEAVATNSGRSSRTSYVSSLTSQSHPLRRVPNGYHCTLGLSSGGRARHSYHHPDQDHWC
# Sequence (Q02410 whole entry): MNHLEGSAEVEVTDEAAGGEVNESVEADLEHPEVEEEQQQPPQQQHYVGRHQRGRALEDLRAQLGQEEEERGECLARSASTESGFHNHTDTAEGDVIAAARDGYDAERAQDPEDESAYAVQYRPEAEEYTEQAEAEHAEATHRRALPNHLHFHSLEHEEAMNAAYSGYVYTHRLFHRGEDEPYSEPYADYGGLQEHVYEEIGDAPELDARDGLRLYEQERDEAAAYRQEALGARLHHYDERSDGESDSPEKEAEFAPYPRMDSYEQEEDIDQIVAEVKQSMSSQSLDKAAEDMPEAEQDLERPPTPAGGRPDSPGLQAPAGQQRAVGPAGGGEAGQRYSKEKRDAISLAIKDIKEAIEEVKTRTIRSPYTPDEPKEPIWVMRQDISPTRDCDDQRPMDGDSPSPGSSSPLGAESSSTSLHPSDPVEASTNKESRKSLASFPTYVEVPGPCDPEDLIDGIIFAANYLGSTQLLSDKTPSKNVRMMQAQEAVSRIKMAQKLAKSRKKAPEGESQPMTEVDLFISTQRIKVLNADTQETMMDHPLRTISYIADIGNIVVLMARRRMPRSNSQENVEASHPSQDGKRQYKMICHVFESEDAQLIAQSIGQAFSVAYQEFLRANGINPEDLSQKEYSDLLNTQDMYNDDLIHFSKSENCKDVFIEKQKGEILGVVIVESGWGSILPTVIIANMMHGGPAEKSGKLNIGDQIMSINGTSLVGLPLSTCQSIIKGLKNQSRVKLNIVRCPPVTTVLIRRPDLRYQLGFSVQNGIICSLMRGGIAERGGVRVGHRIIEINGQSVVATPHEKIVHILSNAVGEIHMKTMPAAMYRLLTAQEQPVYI
# Format: protein assay
Activity calls are given as the source filed them.
READOUT: IC50

• O=c1cc(CO)oc(C(Nc2cccc(C(F)(F)F)c2)c2ccccn2)c1O (stereo not given) = 8.71 µM (active)
• CN1CCN(NS(=O)(=O)c2cccs2)CC1 = 51.3 µM (active)
• COc1ccc(C(=O)Nc2cccc(/C=C(\CCC(=O)O)c3nc4ccccc4s3)c2)cc1 = 4.28 µM (active)
• O=C(NCc1ccco1)c1ccc(Cl)nc1 = 26.5 µM (active)
• CCOc1ccc(N2CSC3=C(C#N)C(c4ccco4)CC(=O)N3C2)cc1 (stereo not given) = 21.6 µM (active)
